Molecular target: Epidermal growth factor receptor (Homo sapiens) (UniProt P00533)
Sequence (P00533 whole entry, looked up): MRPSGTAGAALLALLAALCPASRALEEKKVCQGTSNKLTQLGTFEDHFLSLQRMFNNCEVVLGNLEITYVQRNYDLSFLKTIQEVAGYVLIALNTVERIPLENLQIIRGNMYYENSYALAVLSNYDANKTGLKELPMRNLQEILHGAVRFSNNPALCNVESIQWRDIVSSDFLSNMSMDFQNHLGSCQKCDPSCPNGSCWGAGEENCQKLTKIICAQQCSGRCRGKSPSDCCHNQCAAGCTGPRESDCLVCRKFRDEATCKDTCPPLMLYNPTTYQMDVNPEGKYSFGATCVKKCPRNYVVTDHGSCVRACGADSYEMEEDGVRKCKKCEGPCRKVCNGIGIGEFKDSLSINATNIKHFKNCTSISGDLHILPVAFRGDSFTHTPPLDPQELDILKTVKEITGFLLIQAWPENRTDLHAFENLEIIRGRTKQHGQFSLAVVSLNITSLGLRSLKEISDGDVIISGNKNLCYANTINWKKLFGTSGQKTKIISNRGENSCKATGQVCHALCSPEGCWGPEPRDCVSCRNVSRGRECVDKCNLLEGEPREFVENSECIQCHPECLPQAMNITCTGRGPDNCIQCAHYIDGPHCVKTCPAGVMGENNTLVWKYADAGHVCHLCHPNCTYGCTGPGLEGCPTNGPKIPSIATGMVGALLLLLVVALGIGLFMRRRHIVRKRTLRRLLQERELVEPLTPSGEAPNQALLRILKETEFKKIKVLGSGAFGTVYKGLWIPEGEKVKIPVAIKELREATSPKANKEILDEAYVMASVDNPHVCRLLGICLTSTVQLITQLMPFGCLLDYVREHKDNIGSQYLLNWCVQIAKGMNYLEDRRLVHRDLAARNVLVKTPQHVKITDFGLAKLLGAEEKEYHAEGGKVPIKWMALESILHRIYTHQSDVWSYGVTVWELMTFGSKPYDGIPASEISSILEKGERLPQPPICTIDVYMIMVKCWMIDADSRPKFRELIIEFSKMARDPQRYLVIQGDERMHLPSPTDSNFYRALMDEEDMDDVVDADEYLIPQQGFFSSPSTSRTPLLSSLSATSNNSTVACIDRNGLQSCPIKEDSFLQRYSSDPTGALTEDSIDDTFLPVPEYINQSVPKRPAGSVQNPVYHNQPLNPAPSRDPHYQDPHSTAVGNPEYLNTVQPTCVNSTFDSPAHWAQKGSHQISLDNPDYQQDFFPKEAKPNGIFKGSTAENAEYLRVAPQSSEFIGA
Experiment: EGFR binders on small-molecule microarrays, primary screen, biochemical, small-molecule microarray, 635 nm fluorescence (AID 1104);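 also: score merges 667 nm emission intensity with spot signal to noise over triplicate slides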
Details: EGFR binding, higher = more signal
Consider the following molecules; for each one, report its composite z-score.
Numbers only.

Answered cases to consult:
{"columns": ["molecule", "composite z-score"],
 "data": [
  ["COCCOC(=O)N1C(=O)[C@@]2(c3cc(C#CCC(C(=O)OC)C(=O)OC)ccc31)[C@H](C(=O)N1CCc3cc(OC)c(OC)cc3C1)[C@H]1C(=O)O[C@H](c3ccccc3)[C@H](c3ccccc3)N1[C@@H]2c1ccc(OCCO)cc1", 0.936],
  ["COCCOC(=O)N1C(=O)[C@@]2(c3cc(C#CC4=CCCCC4)ccc31)[C@H](C(=O)N1CCCCCCC1)[C@H]1C(=O)O[C@H](c3ccccc3)[C@H](c3ccccc3)N1[C@@H]2c1ccc(O)cc1", 0.285],
  ["COCCCNC(=O)[C@]1(CCS(=O)(=O)c2ccccc2)N=C(c2ccc(OCCCO)cc2)O[C@@H]1c1ccccc1N=[N+]=[N-]", 0.151]
]}

Report composite z-score for each item below.
1. COC(=O)Cn1c(C(=O)N(C)C)cc2c1C[C@H]1CN(C(=O)c3ccccc3)[C@@](Cc3ccc(F)cc3)(C(=O)OC)[C@@H]21
2. CC1CC/C=C\[C@H]2OC34C=CCN(c5ccc(Cl)cc5)C(=O)[C@H]3N(CCCCCO)C(=O)[C@]4(C)C2C(=O)O1 (some centres undefined)
3. CN(C)CCCNC(=O)[C@@H]1c2ccccc2C(=O)N(Cc2ccccc2Cl)[C@H]1c1ccc(CO)cc1

Reply:
1. 0.404
2. -1.24
3. -0.493

====

Target: NADPH oxidase 5 (Homo sapiens) (UniProt Q96PH1)
Sequence (Q96PH1 whole entry, looked up): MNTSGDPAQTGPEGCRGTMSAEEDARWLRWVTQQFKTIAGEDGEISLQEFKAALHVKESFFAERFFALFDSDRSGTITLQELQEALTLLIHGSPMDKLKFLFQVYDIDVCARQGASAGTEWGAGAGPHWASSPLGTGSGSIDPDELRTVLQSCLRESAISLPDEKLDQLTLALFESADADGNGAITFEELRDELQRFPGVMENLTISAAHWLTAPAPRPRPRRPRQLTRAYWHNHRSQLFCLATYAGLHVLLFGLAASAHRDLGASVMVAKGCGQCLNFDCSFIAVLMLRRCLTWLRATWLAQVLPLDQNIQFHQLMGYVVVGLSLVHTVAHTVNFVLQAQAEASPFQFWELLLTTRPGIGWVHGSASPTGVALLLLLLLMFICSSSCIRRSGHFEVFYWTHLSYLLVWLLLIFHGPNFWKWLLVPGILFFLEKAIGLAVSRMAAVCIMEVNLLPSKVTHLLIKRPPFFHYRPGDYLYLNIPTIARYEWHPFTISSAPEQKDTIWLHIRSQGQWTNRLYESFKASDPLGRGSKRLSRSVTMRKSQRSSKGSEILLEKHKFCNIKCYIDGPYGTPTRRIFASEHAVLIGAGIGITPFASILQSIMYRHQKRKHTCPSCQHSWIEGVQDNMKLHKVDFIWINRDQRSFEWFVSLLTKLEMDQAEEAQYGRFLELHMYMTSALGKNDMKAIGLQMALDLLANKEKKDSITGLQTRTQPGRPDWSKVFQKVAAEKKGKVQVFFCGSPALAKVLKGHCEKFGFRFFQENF
Assay: NOX5-dependent H2O2 signal modulators, primary screen, NOX inhibitor project, cell-based, HEK293-NOX5, Amplex Red fluorescence (AID 1161)
Conditions: HEK293-NOX5, ionomycin, 45 min, higher = more signal
Is z-score at least -0.3? Then MET. If not, NOT MET.

{"columns": ["compound", "assay.system", "label"],
 "data": [
  ["CCCCCCc1nc(-c2cc(C)c(OC)c(C)c2)c(C)c2c1[Si](C(C)C)(C(C)C)OC2", "NADPH oxidase 5 (Homo sapiens) (UniProt Q96PH1)", "NOT MET"],
  ["CC(CO)N1C(=O)[C@@H]2[C@H]3C(=O)OCC=C[C@H]3OC23C=CCN(Cc2ccccc2)C(=O)[C@@H]13 (some centres not stated)", "NADPH oxidase 5 (Homo sapiens) (UniProt Q96PH1)", "MET"],
  ["O=C(NCC(F)(F)F)[C@@H]1c2ccccc2C(=O)N(Cc2ccc(OC(F)(F)F)cc2)[C@H]1c1ccc(CO)cc1", "NADPH oxidase 5 (Homo sapiens) (UniProt Q96PH1)", "MET"],
  ["CN1C(=O)C2C=CC(C(O)c3ccccn3)N(N(c3ccccc3)c3ccccc3)C2C1=O (configuration not stated)", "NADPH oxidase 5 (Homo sapiens) (UniProt Q96PH1)", "NOT MET"],
  ["COCCOC(=O)N1C(=O)[C@@]2(c3cc(C#Cc4ccc(OC)cc4)ccc31)[C@H](C(=O)Nc1nc3ccccc3s1)[C@H]1C(=O)O[C@H](c3ccccc3)[C@H](c3ccccc3)N1[C@@H]2c1ccc(O)cc1", "NADPH oxidase 5 (Homo sapiens) (UniProt Q96PH1)", "MET"],
  ["CO[C@H]1O[C@H](CO)[C@@H](OC(=O)Nc2ccccc2-c2ccccc2)[C@H](OC(=O)Nc2ccc3c(c2)OCO3)[C@H]1OC(=O)Nc1ccc2c(c1)OCO2", "NADPH oxidase 5 (Homo sapiens) (UniProt Q96PH1)", "NOT MET"]
]}

Query: Is the recorded value of z-score equal to or greater than -0.3 for this compound? C[C@@H]1NC(=O)[C@@]23C(=O)N[C@@H](Cc4ccccc4)C2[C@H](C)[C@@]2(C)O[C@H]2C3/C=C/C/C=C\CNC(=O)[C@@H]2CCCN2C1=O (some centres not stated)
Reply: NOT MET
